Assay: Distribution of mecamylamine into ocular tissue of rabbits following intravenous administration (Example 9)
Assay type: in vivo, New Zealand white rabbit
Conditions: male, New Zealand White, rabbit, plasma, iv, 15 mg/kg, 15 mg/kg i.v. 6 hr infusion, hour 1, read-out: Concentration of mecamylamine in the plasma, Mean
Description: Mecamylamine was administered intravenously to male New Zealand white rabbits (approximately 2.5-3 kg (Kralek Frams, Turlock, Calif.)) at a dose of 15 mg/kg (dissolved in sterile 0.9% NaCl for injection) over either over 60 minutes or 6 hours. Drug concentrations were measured as described previously at different time points in the plasma, the vitreous and at 6 hours in the retina-choroid tissue. […] Clinical observations were recorded periodically throughout the study. […]
Quantity: concentration at 1 h (ng/mL)
Give bare numbers, in ng/mL.

Inquiry: I would be grateful if you could share the reported concentration at 1 h for CNC1(C)C2CCC(C2)C1(C)C (stereo not shown) [mecamylamine] .
Reply text: 470

----------
Test: Distribution of mecamylamine into ocular tissue of rabbits following intravenous administration (Example 9)
Type: in vivo, New Zealand white rabbit
Conditions: male, New Zealand white, rabbit, plasma, iv, 15 mg/kg, 15 mg/kg i.v. 1 hr infusion, hour 0, read-out: Concentration of mecamylamine in the plasma, Mean
Quantity: concentration at 0 h

Inquiry: I would be grateful if you could share the reported concentration at 0 h for CNC1(C)C2CCC(C2)C1(C)C (stereo not shown) [mecamylamine] .
Reply text: 48.7 ng/mL

----------
Experiment: 6-hour ocular pharmacokinetics of 2% Mecamylamine GELRITE solution following topical instillation (Example 10)
Format: in vivo, New Zealand White rabbit
Conditions: female, New Zealand White, rabbit, choroid (treated eye), topical, 2% in GELRITE, 2 × 50 μL, OS (unilateral) treated eye, 1 hr, read-out: Mecamylamine concentration in Choroid, Mean
Quantity: concentration at 1 h

Inquiry: I would be grateful if you could share the reported concentration at 1 h for CNC1(C)C2CCC(C2)C1(C)C (stereo not shown) .
Reply text: ~2800 ng/g

----------
Assay: 6-hour ocular pharmacokinetics of 2% Mecamylamine GELRITE solution following topical instillation (Example 10)
Type: in vivo, New Zealand White rabbit
Conditions: female, New Zealand White, rabbit, blood cell fraction, topical, group MEC OU 3 hr, Post, read-out: Mecamylamine concentration in blood Cell Fraction, Mean
Quantity: concentration at 3 h (ng/mL)
Give bare numbers, in ng/mL.

Inquiry: I would be grateful if you could share the reported concentration at 3 h for CNC1(C)C2CCC(C2)C1(C)C (stereo not shown) .
Reply text: 7

----------
Assay: 6-hour ocular pharmacokinetics of 2% Mecamylamine GELRITE solution following topical instillation (Example 10)
Assay type: in vivo, New Zealand White rabbit
Details: female, New Zealand White, rabbit, aqueous humor, topical, 2% in GELRITE, 2 × 50 μL, OU (bilateral), 1 hr, read-out: Mecamylamine concentration in Aqueous humor, Mean
Quantity: concentration at 1 h (ng/g)
Numbers only, in ng/g.

Inquiry: I would be grateful if you could share the reported concentration at 1 h for CNC1(C)C2CCC(C2)C1(C)C (stereo not shown) .
Reply text: 3910

----------
Assay: Distribution of mecamylamine into ocular tissue of rabbits following intravenous administration (Example 9)
Assay type: in vivo, New Zealand white rabbit
Details: male, New Zealand White, rabbit, plasma, iv, 15 mg/kg, 15 mg/kg i.v. 6 hr infusion, hour 4, read-out: Concentration of mecamylamine in the plasma, Mean
Quantity: concentration at 4 h (ng/mL)
One number for each entry, in ng/mL.

Inquiry: I would be grateful if you could share the reported concentration at 4 h for CNC1(C)C2CCC(C2)C1(C)C (stereo not shown) .
Reply text: 717

----------
Experiment: Distribution of mecamylamine into ocular tissue of rabbits following intravenous administration (Example 9)
Type: in vivo, New Zealand white rabbit
Conditions: male, New Zealand white, rabbit, vitreous humor, iv, 15 mg/kg, 15 mg/kg i.v. 1 hr infusion, hour 4, read-out: Concentration of mecamylamine in the vitreous humor, Mean
Quantity: concentration at 4 h (ng/mL)
One number for each entry, in ng/mL.

Inquiry: I would be grateful if you could share the reported concentration at 4 h for CNC1(C)C2CCC(C2)C1(C)C (stereo not shown) [mecamylamine] .
Reply text: 430

----------
Experiment: 6-hour ocular pharmacokinetics of 2% Mecamylamine GELRITE solution following topical instillation (Example 10)
Type: in vivo, New Zealand White rabbit
Conditions: female, New Zealand White, rabbit, retina, topical, fellow (vehicle) eye of unilaterally dosed animals, 1 hr, read-out: Mecamylamine concentration in Retina, Mean
Quantity: concentration at 1 h

Inquiry: I would be grateful if you could share the reported concentration at 1 h for CNC1(C)C2CCC(C2)C1(C)C (stereo not shown) .
Reply text: 781 ng/g

----------
Experiment: 6-hour ocular pharmacokinetics of 2% Mecamylamine GELRITE solution following topical instillation (Example 10)
Type: in vivo, New Zealand White rabbit
Conditions: female, New Zealand White, rabbit, vitreous humor, topical, 2% in GELRITE, 2 × 50 μL, OU (bilateral), 3 hr, read-out: Mecamylamine concentration in Vitreous humor, Mean
Method: The time of each dose administration was recorded. There was no mortality in the treatment group.
Quantity: concentration at 3 h
# output: numeric value plus its unit

Inquiry: I would be grateful if you could share the reported concentration at 3 h for CNC1(C)C2CCC(C2)C1(C)C (stereo not shown) .
Reply text: 17.7 ng/g

----------
Assay: Distribution of mecamylamine into ocular tissue of rabbits following intravenous administration (Example 9)
Type: in vivo, New Zealand white rabbit
Settings: male, New Zealand White, rabbit, plasma, iv, 15 mg/kg, 15 mg/kg i.v. 1 hr infusion, hour 6, read-out: Concentration of mecamylamine in the plasma, Mean
Quantity: concentration at 6 h (ng/mL)
Answers are plain numbers, in ng/mL.

Inquiry: I would be grateful if you could share the reported concentration at 6 h for CNC1(C)C2CCC(C2)C1(C)C (stereo not shown) [mecamylamine] .
Reply text: 102

----------
Test: 6-hour ocular pharmacokinetics of 2% Mecamylamine GELRITE solution following topical instillation (Example 10)
Type: in vivo, New Zealand White rabbit
Conditions: female, New Zealand White, rabbit, cornea, topical, 2% in GELRITE, 2 × 50 μL, OU (bilateral), 3 hr, read-out: Mecamylamine concentration in Cornea, Mean
Quantity: concentration at 3 h
# output: numeric value plus its unit

Inquiry: I would be grateful if you could share the reported concentration at 3 h for CNC1(C)C2CCC(C2)C1(C)C (stereo not shown) .
Reply text: 3820 ng/g

----------
Test: Distribution of mecamylamine into ocular tissue of rabbits following intravenous administration (Example 9)
Assay type: in vivo, New Zealand white rabbit
Conditions: male, New Zealand White, rabbit, plasma, iv, 15 mg/kg, 15 mg/kg i.v. 1 hr infusion, hour 1, read-out: Concentration of mecamylamine in the plasma, Mean
Quantity: concentration at 1 h (ng/mL)
Answers are plain numbers, in ng/mL.

Inquiry: I would be grateful if you could share the reported concentration at 1 h for CNC1(C)C2CCC(C2)C1(C)C (stereo not shown) [mecamylamine] .
Reply text: 1820

----------
Test: Distribution of mecamylamine into ocular tissue of rabbits following intravenous administration (Example 9)
Assay type: in vivo, New Zealand white rabbit
Details: male, New Zealand white, rabbit, vitreous humor, iv, 15 mg/kg, 15 mg/kg i.v. 6 hr infusion, hour 0, read-out: Concentration of mecamylamine in the vitreous humor, Mean
Protocol: Mecamylamine was administered intravenously to male New Zealand white rabbits (approximately 2.5-3 kg (Kralek Frams, Turlock, Calif.)) at a dose of 15 mg/kg (dissolved in sterile 0.9% NaCl for injection) over either over 60 minutes or 6 hours. Drug concentrations were measured as described previously at different time points in the plasma, the vitreous and at 6 hours in the retina-choroid tissue. […] Clinical observations were recorded periodically throughout the study. […]
Quantity: concentration at 0 h (ng/mL)
Give bare numbers, in ng/mL.

Inquiry: I would be grateful if you could share the reported concentration at 0 h for CNC1(C)C2CCC(C2)C1(C)C (stereo not shown) .
Reply text: 5.6

----------
Assay: 6-hour ocular pharmacokinetics of 2% Mecamylamine GELRITE solution following topical instillation (Example 10)
Format: in vivo, New Zealand White rabbit
Details: female, New Zealand White, rabbit, plasma, topical, group MEC OU 1 hr, Post, read-out: Mecamylamine concentration in blood Plasma, Mean
Quantity: concentration at 1 h (µg/mL)
Numbers only, in µg/mL.

Inquiry: I would be grateful if you could share the reported concentration at 1 h for CNC1(C)C2CCC(C2)C1(C)C (stereo not shown) .
Reply text: 0.0378

----------
Assay: 6-hour ocular pharmacokinetics of 2% Mecamylamine GELRITE solution following topical instillation (Example 10)
Assay type: in vivo, New Zealand White rabbit
Conditions: female, New Zealand White, rabbit, choroid of the fellow (vehicle) eye, topical, fellow (vehicle) eye of unilaterally dosed animals, 1 hr, read-out: Mecamylamine concentration in Choroid, Mean
Quantity: concentration at 1 h

Inquiry: I would be grateful if you could share the reported concentration at 1 h for CNC1(C)C2CCC(C2)C1(C)C (stereo not shown) .
Reply text: ~700 ng/g
